Assay: Binding affinity to fluorescently-labeled c-MYC G-quadruplex DNA (unknown origin) by thiazole-ornage dye based fluorescence intercalator displacement assay
quantity_name: pKd
Give bare numbers, as −log10 of the molar value.

For this compound ( O=C(NCc1cn(-c2ccc(NC(=O)[C@@H]3CCCN3)cc2)nn1)c1cccc(C(=O)NCc2cn(-c3ccc(NC(=O)[C@@H]4CCCN4)cc3)nn2)n1 ), measured pKd is 5.42

###

Test: Binding affinity to fluorescently-labeled c-KIT1 G-quadruplex DNA (unknown origin) by thiazole-ornage dye based fluorescence intercalator displacement assay
quantity_name: Kd (nM)
Answers are plain numbers, in nM.

For this compound ( O=C(NCc1cn(-c2ccc(NC(=O)[C@@H]3CCCN3)cc2)nn1)c1cccc(C(=O)NCc2cn(-c3ccc(NC(=O)[C@@H]4CCCN4)cc3)nn2)n1 ), measured Kd is 740
